This section presents molecules with their documented melting point values.

Recorded melting point, per entry:
{"columns": ["Molecule", "melting point"],
 "data": [
  ["COc1ccc(/C=C/c2nc(N3CCOCC3)c(NC(C)=O)c(N3CCOCC3)n2)cc1 [Compound 79]", "189 to 191 °C"],
  ["CC(=O)C1(c2ccccc2)CCN(c2nc(N3CCOCC3)cc(N3CCOCC3)n2)CC1 [Compound 38]", "115 to 118 °C"],
  ["Fc1ccccc1N1CCN(c2nc(N3CCNCC3)c(F)c(N3CCOCC3)n2)CC1 [Compound 182]", "51 to 52 °C"]
]}

**Q:** Input Cc1cccc(N2CCN(c3nc(N4CCN(Cc5ccc(NC(=O)OC(C)(C)C)cc5)CC4)nc(N4CCOCC4)c3F)CC2)c1C [Compound 193] , output reported melting point.
**A:** 104 to 105 °C

**Q:** Annotate the molecule CC(=O)C1(c2ccccc2)CCN(c2nc(N3CCOCC3)c(F)c(N3CCOCC3)n2)CC1 [Compound 118] with its measured melting point.
**A:** 201 to 205 °C

* * *

System: astrocyte/neuron co-culture
Assay Details: Brain cell damage induced by hydrogen peroxide treatment (LDH assay)
Type: cell-based
Measurement Conditions: Rattus norvegicus, hydrogen peroxide (250 μM), 24 hours, read-out: 50% inhibition concentration against cell damage in entire co-culture system (EC50 value)
Each item that follows carries a reported EC50.
Give just the number in nM; leave the unit off.

Some entries whose results are on file:
{"columns": ["Compound", "Unit Tag", "Experimental Result"],
 "data": [
  ["COc1ccc(/C=C/c2nc(N3CCOCC3)c(N)c(N3CCN(C(=O)CN)CC3)n2)cc1 [Compound 176]", "nM", 2740],
  ["COc1ccc(/C=C/c2nc(N(C)C)c(N)c(N(C)C)n2)cc1 [Compound 140]", "nM", 5150],
  ["Fc1c(N2CCOCC2)nc(N2CCOCC2)nc1N1CCc2ccccc2C1 [Compound 87]", "nM", 680],
  ["Cc1ccc(N2CCN(c3nc(N4CCOCC4)nc(NCCN4CCOCC4)c3F)CC2)cc1 [Compound 160]", "nM", 1080],
  ["CCCNc1cc(N2CCOCC2)nc(N2CCN(c3ccccc3)CC2)n1 [Compound 56]", "nM", 2950],
  ["COc1ccc(/C=C/c2nc(N(C)C)c(N)c(N3CCNCC3)n2)cc1 [Compound 210]", "nM", 4070],
  ["CCOc1ccccc1N1CCN(c2nc(N3CCOCC3)c(F)c(N3CCN(C)CC3)n2)CC1 [Compound 190]", "nM", 340],
  ["COc1ccc(/C=C/c2nc(N3CCOCC3)c(N)c(N3CCN(S(=O)(=O)N(C)C)CC3)n2)cc1 [Compound 215]", "nM", 1610],
  ["Cc1ccc(N2CCN(c3nc(NCCN4CCNCC4)nc(N4CCOCC4)c3F)CC2)cc1 [Compound 158]", "nM", 160],
  ["c1ccc(N2CCN(c3cc(N4CCOCC4)nc(N4CCN(c5ccccc5)CC4)n3)CC2)cc1 [Compound 57]", "nM", 5120]
]}

Next up:
**Q:** Write down EC50 measured for item CC(=O)Nc1c(N2CCOCC2)nc(N2CCOCC2)nc1N1CCC(Cc2ccccc2)CC1 [Compound 78]
**A:** 9750

* * *

Assay Metric: melting point

// solved cases for melting point follow
{"columns": ["Compound", "melting point"],
 "data": [
  ["Nc1c(N2CCOCC2)nc(/C=C/c2ccncc2)nc1N1CCOCC1 [Compound 134]", "216 to 220 °C"],
  ["Clc1ccccc1N1CCN(c2nc(N3CCOCC3)cc(N3CCOCC3)n2)CC1 [Compound 26]", "156 °C"],
  ["CC(=O)C1(c2ccccc2)CCN(c2cc(N3CCOCC3)nc(N3CCOCC3)n2)CC1 [Compound 39]", "146 to 147 °C"],
  ["c1ccc(C2CN(c3nc(N4CCOCC4)cc(N4CCOCC4)n3)CCN2)cc1 (centres unmarked) [Compound 16]", "100 to 104 °C"],
  ["Cc1ccccc1N1CCN(c2nc(N3CCN(c4ccccc4F)CC3)nc(N3CCOCC3)c2F)CC1 [Compound 127]", "71 to 72 °C"],
  ["c1ccc(C2CN(c3cc(N4CCOCC4)nc(N4CCOCC4)n3)CCN2)cc1 (centres unmarked) [Compound 17]", "181 to 185 °C"]
]}

**Q:** Return reported melting point. Input compound: CC(C)(C)OC(=O)N1CCN(c2nc(N3CCN(c4ccccc4Cl)CC3)nc(N3CCOCC3)c2F)CC1 [Compound 188]
**A:** 75 to 76 °C

**Q:** Identify measured melting point associated with Cc1ccc(N2CCN(c3nc(N4CCOCC4)cc(N4CCOCC4)n3)CC2)cc1 [Compound 22]
**A:** 191 to 194 °C

**Q:** State, in one line, measured melting point of Cc1ccccc1N1CCN(c2cc(N3CCOCC3)nc(N3CCN(c4ccccc4F)CC3)n2)CC1 [Compound 60]
**A:** 98 to 99 °C

**Q:** Find the measured melting point of Cc1ccccc1/C=C/c1nc(N2CCOCC2)c(N)c(N2CCOCC2)n1 [Compound 137] and report it.
**A:** 151 to 154 °C

**Q:** Look up melting point of Fc1ccccc1N1CCN(c2nc(N3CCOCC3)c(F)c(N3CCOCC3)n2)CC1 [Compound 106] and report it.
**A:** 144 °C

**Q:** Return reported melting point. Input compound: Fc1ccccc1N1CCN(c2nc(N3CCOCC3)c(F)c(N3CCN(c4ccccc4F)CC3)n2)CC1 [Compound 126]
**A:** 131 to 132 °C

**Q:** Specify melting point for CC(=O)c1ccc(N2CCN(c3nc(N4CCOCC4)c(F)c(N4CCOCC4)n3)CC2)cc1 [Compound 100] and stop.
**A:** 195 to 198 °C

**Q:** Tell me measured melting point for Fc1ccccc1N1CCN(c2nc(N3CCN(c4ccccc4)CC3)nc(N3CCOCC3)c2F)CC1 [Compound 125] please.
**A:** 140 to 141 °C

**Q:** Return value of melting point for input c1cnc(N2CCN(c3nc(N4CCOCC4)cc(N4CCOCC4)n3)CC2)nc1 [Compound 14] , no commentary.
**A:** 212 to 215 °C

**Q:** Identify measured melting point associated with Fc1ccc(N2CCN(c3cc(N4CCOCC4)nc(N4CCOCC4)n3)CC2)cc1 [Compound 21]
**A:** 215 to 218 °C

**Q:** Quote melting point reported for c1ccc(N2CCN(c3nc(N4CCOCC4)cc(N4CCOCC4)n3)CC2)cc1 [Compound 1] please.
**A:** 182 to 184 °C

* * *

# Lookup of reported melting point keyed by entry

Past entries and their recorded results:
{"columns": ["Query Smiles", "Assay Metric", "Experimental Result"],
 "data": [
  ["Cc1cccc(N2CCN(c3nc(N4CCN(Cc5ccc(N)cc5)CC4)nc(N4CCOCC4)c3F)CC2)c1C", "melting point", "77 to 78 °C"],
  ["Fc1ccc(N2CCN(c3nc(N4CCOCC4)c(F)c(N4CCOCC4)n3)CC2)cc1", "melting point", "195 to 198 °C"],
  ["Cc1ccccc1N1CCN(c2nc(N3CCOCC3)cc(N3CCOCC3)n2)CC1", "melting point", "149 °C"],
  ["Fc1c(N2CCOCC2)nc(N2CCN(c3ncccn3)CC2)nc1N1CCOCC1", "melting point", "163 to 165 °C"],
  ["Cc1ccccc1N1CCN(c2cc(N3CCOCC3)nc(N3CCN(c4ccccc4C)CC3)n2)CC1", "melting point", "98 to 99 °C"],
  ["Fc1c(N2CCNCC2)nc(N2CCN(c3ccccc3Cl)CC2)nc1N1CCOCC1", "melting point", "70 to 71 °C"],
  ["O=CN1CCN(c2cc(N3CCOCC3)nc(N3CCN(c4ccccc4)CC3)n2)CC1", "melting point", "171 to 172 °C"]
]}

Could you now look at the following compound, please?
**Q:** Please give measured melting point of the following entry: c1ccc2c(c1)CN(c1nc(N3CCOCC3)cc(N3CCOCC3)n1)C2
**A:** 194 to 198 °C

* * *

Listing: melting point of selected compounds

Study these solved cases before continuing.
{"columns": ["Compound", "melting point"],
 "data": [
  ["Cc1ccc(N2CCN(c3nc(N4CCOCC4)c(F)c(N4CCOCC4)n3)CC2)cc1 [Compound 98]", "201 to 203 °C"],
  ["Cc1cccc(N2CCN(c3nc(N4CCN(Cc5ccncc5)CC4)nc(N4CCOCC4)c3F)CC2)c1C [Compound 191]", "127 to 128 °C"],
  ["c1ccc(-c2c(N3CCOCC3)nc(N3CCOCC3)nc2N2CCN(c3ccccc3)CC2)cc1 [Compound 47]", "203 to 206 °C"]
]}

# context switch: different compound, same melting point
**Q:** Consider the compound COc1ccccc1N1CCN(c2nc(N3CCOCC3)cc(N3CCOCC3)n2)CC1 [Compound 32] and give its recorded melting point.
**A:** 214 °C
